All values here come from ChEMBL document CHEMBL1159256.

Molecular target: Acetylcholinesterase (Electrophorus electricus, UniProt O42275)
Sequence (O42275 whole entry): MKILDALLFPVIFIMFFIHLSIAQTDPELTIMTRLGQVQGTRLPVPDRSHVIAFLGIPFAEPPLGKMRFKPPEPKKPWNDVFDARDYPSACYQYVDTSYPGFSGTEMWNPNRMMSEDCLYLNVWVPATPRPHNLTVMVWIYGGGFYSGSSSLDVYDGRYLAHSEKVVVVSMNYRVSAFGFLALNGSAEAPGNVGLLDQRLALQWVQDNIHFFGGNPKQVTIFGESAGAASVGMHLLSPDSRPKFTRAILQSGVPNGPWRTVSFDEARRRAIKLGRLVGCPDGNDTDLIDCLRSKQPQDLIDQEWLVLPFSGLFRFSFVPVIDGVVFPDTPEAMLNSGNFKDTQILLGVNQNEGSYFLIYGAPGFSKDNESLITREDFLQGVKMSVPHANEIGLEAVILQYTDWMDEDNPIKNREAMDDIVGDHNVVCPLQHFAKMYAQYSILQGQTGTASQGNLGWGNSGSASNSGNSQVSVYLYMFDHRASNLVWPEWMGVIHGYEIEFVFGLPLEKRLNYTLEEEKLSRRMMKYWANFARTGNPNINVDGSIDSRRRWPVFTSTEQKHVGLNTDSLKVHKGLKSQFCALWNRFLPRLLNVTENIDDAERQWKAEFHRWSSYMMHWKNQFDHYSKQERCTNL
measurement_type: pIC50
Give bare numbers, as −log10 of the molar value.

Some entries whose results are on file:
INSERT INTO results (compound, experimental_target, observed_result) VALUES
  ('COc1cc(-c2cc3c(c(=O)o2)C[C@]2(O)[C@@]4(C)C(=O)CCC(C)(C)[C@]4(O)CC[C@@]2(C)O3)cc(OC)c1OC [2,3-DIHYDROTERRITREM B]', 'Acetylcholinesterase (Electrophorus electricus, UniProt O42275)', 5.66),
  ('COc1cc(-c2cc3c(c(=O)o2)C[C@]2(O)[C@@]4(C)[C@H](O)C=CC(C)(C)[C@]4(O)CC[C@@]2(C)O3)cc(OC)c1OC [1-DIHYDROTERRITREM B]', 'Acetylcholinesterase (Electrophorus electricus, UniProt O42275)', 4.10),
  ('COc1cc(-c2cc3c(c(=O)o2)C[C@]2(O)[C@@]4(C)C(=O)C=C[C@](C)(CI)[C@]4(O)CC[C@@]2(C)O3)cc(OC)c1OC', 'Acetylcholinesterase (Electrophorus electricus, UniProt O42275)', 6.54),
  ('COc1cc(-c2cc3c(c(=O)o2)C[C@]2(O)[C@@]4(C)C(=O)C=CC(C)(C)[C@]4(O)CC[C@@]2(C)O3)cc(OC)c1OC', 'Acetylcholinesterase (Electrophorus electricus, UniProt O42275)', 6.59);

Ask: For the record COc1cc(-c2cc3c(c(=O)o2)C[C@]2(O)[C@@]4(C)C(=O)[C@H]5O[C@H]5C(C)(C)[C@]4(O)CC[C@@]2(C)O3)cc(OC)c1OC , what value of pIC50 is listed for Acetylcholinesterase (Electrophorus electricus, UniProt O42275)?
Reply: 6.77
